Catalogue of MFI readings, one per entry.
measured target: T1, human chemokine (C-C motif) receptor 8 (CCR8) (human, UniProt P51685 1-355)
T1 construct: On human peripheral blood lymphocytes / PBMC (native) or on human CCR8 GFP-transfected Ba/F3 cells; also called hCCR8; human CCR8
T1 sequence (P51685 whole entry): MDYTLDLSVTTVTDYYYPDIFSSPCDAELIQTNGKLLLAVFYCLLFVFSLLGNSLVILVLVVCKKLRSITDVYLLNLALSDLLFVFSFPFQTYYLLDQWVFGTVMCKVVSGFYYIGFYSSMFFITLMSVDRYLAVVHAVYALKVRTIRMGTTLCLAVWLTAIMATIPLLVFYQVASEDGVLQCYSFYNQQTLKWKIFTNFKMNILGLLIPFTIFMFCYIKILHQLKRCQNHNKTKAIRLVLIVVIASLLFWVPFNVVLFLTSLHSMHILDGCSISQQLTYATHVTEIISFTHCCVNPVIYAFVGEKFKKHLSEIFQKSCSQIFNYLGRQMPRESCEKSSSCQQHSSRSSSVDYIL
experiment notes: flow cytometry blocking, PBMC CCR8+ CD4+ cells; competitor PE-AB15 (its MFI is read)
measured property: MFI

binder | reported measurement
AB10 (antibody, V domains shown, Hybridoma monoclonal; also called antibody 10; clone 10) VH: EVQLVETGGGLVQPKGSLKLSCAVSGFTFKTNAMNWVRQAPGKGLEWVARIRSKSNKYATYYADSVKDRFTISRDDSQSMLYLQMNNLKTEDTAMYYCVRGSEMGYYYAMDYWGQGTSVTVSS VL: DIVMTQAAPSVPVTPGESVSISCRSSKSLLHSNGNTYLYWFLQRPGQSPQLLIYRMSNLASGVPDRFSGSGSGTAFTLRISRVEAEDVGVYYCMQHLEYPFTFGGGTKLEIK | 793
AB8 (antibody, V domains shown, Hybridoma monoclonal; also called antibody 8; clone 8) VH: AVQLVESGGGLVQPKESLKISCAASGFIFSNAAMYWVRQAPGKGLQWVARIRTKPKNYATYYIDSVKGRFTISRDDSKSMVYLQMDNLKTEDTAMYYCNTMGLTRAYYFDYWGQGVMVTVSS VL: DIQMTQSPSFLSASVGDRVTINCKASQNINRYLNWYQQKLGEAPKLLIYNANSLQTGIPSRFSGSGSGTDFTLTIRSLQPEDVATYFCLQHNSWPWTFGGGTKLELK | 1240
AB4 (antibody, V domains shown, Hybridoma monoclonal; also called antibody 4; clone 4) VH: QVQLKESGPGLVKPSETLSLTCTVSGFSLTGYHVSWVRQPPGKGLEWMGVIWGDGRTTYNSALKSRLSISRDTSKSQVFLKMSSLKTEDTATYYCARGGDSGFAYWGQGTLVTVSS VL: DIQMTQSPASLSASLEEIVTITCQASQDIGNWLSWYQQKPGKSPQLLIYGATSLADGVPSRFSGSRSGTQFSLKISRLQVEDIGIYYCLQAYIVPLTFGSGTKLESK | 855
AB2 (antibody, V domains shown, Hybridoma monoclonal; also called antibody 2; clone 2) VH: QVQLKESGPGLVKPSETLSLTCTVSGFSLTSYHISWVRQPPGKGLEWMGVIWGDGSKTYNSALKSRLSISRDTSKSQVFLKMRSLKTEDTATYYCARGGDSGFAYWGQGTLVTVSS VL: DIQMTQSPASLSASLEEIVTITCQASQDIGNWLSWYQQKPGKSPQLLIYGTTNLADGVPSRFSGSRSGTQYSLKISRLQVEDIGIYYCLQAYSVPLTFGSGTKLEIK | 855
AB12 (antibody, V domains shown, Hybridoma monoclonal; also called antibody 12; clone 12) VH: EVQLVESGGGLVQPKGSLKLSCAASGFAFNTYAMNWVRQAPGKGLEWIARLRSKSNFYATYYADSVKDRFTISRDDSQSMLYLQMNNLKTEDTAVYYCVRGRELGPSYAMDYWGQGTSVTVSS VL: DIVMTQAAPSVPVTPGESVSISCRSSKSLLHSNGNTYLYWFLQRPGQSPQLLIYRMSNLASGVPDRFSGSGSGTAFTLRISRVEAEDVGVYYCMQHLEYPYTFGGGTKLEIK | 734
AB14 (antibody, V domains shown, Hybridoma monoclonal; also called antibody 14; clone 14) VH: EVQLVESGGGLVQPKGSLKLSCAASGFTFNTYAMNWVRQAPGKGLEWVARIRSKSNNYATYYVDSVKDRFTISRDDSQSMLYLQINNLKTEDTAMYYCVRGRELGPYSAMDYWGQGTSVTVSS VL: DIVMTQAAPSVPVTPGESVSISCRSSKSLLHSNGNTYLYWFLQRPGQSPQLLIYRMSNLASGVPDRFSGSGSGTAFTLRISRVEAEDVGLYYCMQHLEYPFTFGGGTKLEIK | 2520
AB3 (antibody, V domains shown, Hybridoma monoclonal; also called antibody 3; clone 3) VH: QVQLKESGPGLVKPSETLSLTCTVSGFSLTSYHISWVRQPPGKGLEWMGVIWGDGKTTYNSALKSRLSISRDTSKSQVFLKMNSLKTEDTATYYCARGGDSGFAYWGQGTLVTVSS VL: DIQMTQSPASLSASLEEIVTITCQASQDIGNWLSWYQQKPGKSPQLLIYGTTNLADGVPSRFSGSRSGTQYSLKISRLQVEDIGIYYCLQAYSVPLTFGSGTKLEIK | 874

meta.source: patent US20240360228A1
